Molecular target: T1, GST-KIAA1526 PDZ domain 1 (Homo sapiens (Human)), Q9P202
T1 chain: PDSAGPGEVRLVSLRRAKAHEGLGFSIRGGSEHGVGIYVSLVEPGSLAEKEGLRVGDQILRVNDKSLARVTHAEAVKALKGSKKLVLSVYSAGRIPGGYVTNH
Assay: G' assay; note: key of the grades not given here
Measured Classification by item
Quick reminder: number only, in A450 class, skip the unit.

Below are worked cases with known answers.
INSERT INTO measurements (binder, value_measured) VALUES
  ('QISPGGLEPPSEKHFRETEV (modifications not checked) [TAX]', 3),
  ('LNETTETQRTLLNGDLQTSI (modifications not checked) [SSTR2 (somatostatin recepor 2)]', 1),
  ('QPTPTLGLNLGNDPDRGTSI (modifications not checked) [GluR delta-2]', 2);

Briefly, Classification measured for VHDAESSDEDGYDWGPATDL (modifications not checked) [zona occludens 3 (ZO-3) PL peptide] : 1

Briefly, Classification measured for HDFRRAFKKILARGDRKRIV (modifications not checked) [alpha-2A Adrenergic receptor] : 4

Briefly, Classification measured for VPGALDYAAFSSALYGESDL (modifications not checked) [a-actinin 2] : 1

Briefly, Classification measured for TEGNESSEATSPVNAIYSLA (modifications not checked) [neurofascin (chicken)] : 1
